src = patent US20160222021A1

Assayed System: GST-Xa-hAAK1 (Homo sapiens, UniProt Q2M2I8)
Construct: made in house
Sequence (Q2M2I8 whole entry): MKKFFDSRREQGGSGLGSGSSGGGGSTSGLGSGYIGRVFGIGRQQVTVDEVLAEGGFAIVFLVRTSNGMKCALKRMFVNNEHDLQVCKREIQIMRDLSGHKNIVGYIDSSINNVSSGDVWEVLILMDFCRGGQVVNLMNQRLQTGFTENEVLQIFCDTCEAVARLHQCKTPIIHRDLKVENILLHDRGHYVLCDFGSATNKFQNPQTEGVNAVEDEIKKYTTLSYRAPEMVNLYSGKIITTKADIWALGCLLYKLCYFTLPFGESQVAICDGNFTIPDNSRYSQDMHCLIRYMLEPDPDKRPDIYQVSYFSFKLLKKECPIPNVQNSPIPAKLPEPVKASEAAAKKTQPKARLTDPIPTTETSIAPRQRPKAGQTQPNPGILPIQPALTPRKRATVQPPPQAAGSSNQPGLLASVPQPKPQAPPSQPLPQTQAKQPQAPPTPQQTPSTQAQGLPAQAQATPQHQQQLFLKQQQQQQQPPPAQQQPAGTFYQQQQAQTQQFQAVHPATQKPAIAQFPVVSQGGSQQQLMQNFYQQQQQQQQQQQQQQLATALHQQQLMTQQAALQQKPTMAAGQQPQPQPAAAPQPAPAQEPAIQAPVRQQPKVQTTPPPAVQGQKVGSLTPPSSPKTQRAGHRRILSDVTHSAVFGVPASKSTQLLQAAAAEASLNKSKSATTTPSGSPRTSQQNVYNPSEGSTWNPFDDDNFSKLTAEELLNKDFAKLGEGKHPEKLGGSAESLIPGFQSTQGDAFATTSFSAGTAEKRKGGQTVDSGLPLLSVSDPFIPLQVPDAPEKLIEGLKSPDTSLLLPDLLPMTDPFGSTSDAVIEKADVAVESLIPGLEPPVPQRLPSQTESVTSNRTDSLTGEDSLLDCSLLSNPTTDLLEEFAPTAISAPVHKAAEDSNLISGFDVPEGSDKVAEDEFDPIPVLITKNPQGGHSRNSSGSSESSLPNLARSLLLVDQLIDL
Run Description: AAK1 Kinase Assay
Format: biochemical
Condition Summary: ATP 22 μM; IC50 ranges
pIC50: −log10 of the molar value.

Compound	pIC50
COC(=O)Nc1cc2c(cn1)COc1c-2ccc(OC[C@@H](N)CC(C)C)c1Cl	8.00 to 9.00
[2H]C1([2H])Oc2cc(OC[C@@](C)(N)CC(C)C)ccc2-c2cc(NC(=O)OC)ncc21	8.00 to 9.00
CC(C)C[C@H](N)COc1cc2c(cc1Cl)-c1ccncc1[C@@H](C(F)(F)F)O2 (single isomer, unassigned) [Example 27b]	8.00 to 9.00
[2H]C([2H])(Oc1ccc2c(c1)OCc1cnc(NC(=O)OCC)cc1-2)C(C)(N)CC(C)C (racemic)	8.00 to 9.00
N[C@@H](COc1ccc2c(c1)OCc1cnccc1-2)Cc1ccccc1	5.92 to 7.00
CC(=O)Nc1cc2c(cn1)COc1c-2ccc(OC[C@@H](N)CC(C)C)c1OC(F)F	8.00 to 9.00
COC(=O)Nc1cc2c(cn1)COc1c-2ccc(OCC(C)(N)CC(C)C)c1OC(F)F (racemic)	> 9.00
CC(C)C[C@](C)(N)COc1ccc2c(c1Cl)OCc1cnc(N)cc1-2	> 9.00
